Test system: S. pseudintermedius MRSP 45
procedure-summary: microbe, parasite or virus in culture
Type: cell-based, Staphylococcus pseudintermedius
assay-conditions: Staphylococcus pseudintermedius, MRSP45; MRSP 45; 24 h; Table 8; read-out: MIC, single component
measured-property: MIC

CC[C@H]1OC(=O)[C@H](C)[C@@H](O[C@H]2C[C@@](C)(OC)[C@@H](O)[C@H](C)O2)[C@H](C)[C@@H](O[C@@H]2O[C@H](C)C[C@H](N(C)C)[C@H]2O)[C@](C)(O)C[C@@H](C)C(=O)[C@H](C)[C@@H](O)[C@]1(C)O = > 250 µg/mL

// moving on: another record for MIC
Entry C/C=C(\NC(=O)c1csc(-c2csc(-c3ccc4c(n3)-c3csc(n3)[C@H]([C@@H](C)O)NC(=O)c3csc(n3)[C@H](C(C)C)NC(=O)c3csc(n3)/C(=C/C)NC(=O)[C@H]([C@@H](C)O)NC(=O)c3csc-4n3)n2)n1)C(=O)NC[C@@H](C)O [MP1, micrococcin P1] : reported MIC = ? > 2.5 µg/mL

---

For each entry below, report its MIC value.
System: MRSA ATCC 33591-lux
procedure-summary: AAMP assay and checkerboard synergy
Type: cell-based, Staphylococcus aureus
assay-conditions: Staphylococcus aureus, 24 h; MRSA ATCC 33591-lux; read-out: MIC, single antimicrobial

CC1(C)S[C@@H]2[C@H](NC(=O)Cc3ccccc3)C(=O)N2[C@H]1C(=O)O [Penicillin G] = < 2500 µg/mL
NC[C@H]1O[C@H](O[C@H]2[C@H](O)[C@@H](O[C@H]3O[C@H](CO)[C@@H](O)[C@H](N)[C@H]3O)[C@H](N)C[C@@H]2N)[C@H](O)[C@@H](O)[C@@H]1O [Kan, Kanamycin] = > 125 µg/mL

Hi, could you look up MIC for each item in my list?
1. CC[C@H]1OC(=O)[C@H](C)[C@@H](O[C@H]2C[C@@](C)(OC)[C@@H](O)[C@H](C)O2)[C@H](C)[C@@H](O[C@@H]2O[C@H](C)C[C@H](N(C)C)[C@H]2O)[C@](C)(O)C[C@@H](C)C(=O)[C@H](C)[C@@H](O)[C@]1(C)O [Ery, Erythromycin]
2. [H]/N=C(/N)N[C@H]1[C@H](O)[C@@H](O)[C@H](O[C@@H]2O[C@@H](C)[C@](O)(C=O)[C@H]2O[C@@H]2O[C@@H](CO)[C@H](O)[C@@H](O)[C@@H]2NC)[C@@H](N/C(N)=N\[H])[C@@H]1O [Str, Streptomycin]

["> 250 µg/mL", "> 2500 µg/mL"]

---

Tested on: MRSA ATCC 33591
procedure-summary: microbe, parasite or virus in culture
Format: cell-based, Staphylococcus aureus
assay-conditions: Staphylococcus aureus, 24 h, read-out: MIC, single antimicrobial
Response field label: string, one of T (MIC strictly below 2 µg/mL) or F.

Field: example entries. Status: answers known.
CC(=O)O[C@H]1C[C@@]2(C)[C@@H](C[C@@H](O)[C@H]3[C@@]4(C)CC[C@@H](O)[C@@H](C)[C@@H]4CC[C@@]32C)/C1=C(\CCC=C(C)C)C(=O)O = T
CC(C)=CCCC(C)=CCCC(C)=CCO = F
CN(C)[C@@H]1C(O)=C(C(N)=O)C(=O)[C@@]2(O)C(O)=C3C(=O)c4c(O)cccc4[C@@](C)(O)[C@H]3C[C@@H]12 = F
CO[C@H]1/C=C/O[C@@]2(C)Oc3c(C)c(O)c4c(O)c(c(/C=N/N5CCN(C)CC5)c(O)c4c3C2=O)NC(=O)/C(C)=C\C=C\[C@H](C)[C@H](O)[C@@H](C)[C@@H](O)[C@@H](C)[C@H](OC(C)=O)[C@@H]1C = F
C/C=C(\NC(=O)c1csc(-c2csc(-c3ccc4c(n3)-c3csc(n3)[C@H]([C@@H](C)O)NC(=O)c3csc(n3)[C@H](C(C)C)NC(=O)c3csc(n3)/C(=C/C)NC(=O)[C@H]([C@@H](C)O)NC(=O)c3csc-4n3)n2)n1)C(=O)NC[C@@H](C)O [MP1, micrococcin P1] = F

Shifting focus to the molecule that follows.
Confirm or reject: MIC of O=C(N[C@H](CO)[C@H](O)c1ccc([N+](=O)[O-])cc1)C(Cl)Cl lies strictly below 2 µg/mL F
